Listed here are compounds together with their documented IC50.
Test system: MCF7
Test: Cytotoxicity against human MCF7 cells assessed as reduction in cell viability after 48 hrs by MTS assay
Type: functional, cell-based
Conditions: MCF7, 48 h

Example compounds with recorded IC50:
CC(C)c1c(O)c(C=O)c2c(c1O)OC(O)[C@H]1C(C)(C)CCC[C@]21C (stereo partly drawn): > 10 µM
CC(C)c1cc(C(=O)O)c2c(c1O)O[C@]1(O)C(C)(C)[C@@H](O)CC[C@]21C: > 10 µM
CC(C)c1cc2c(cc1O)C=C[C@H]1C(C)(C)CCC[C@]21C: > 10 µM
CC(C)c1cc2c(c(O)c1O)[C@@]1(C)CCCC(C)(C)[C@@H]1CC2=O: > 10 µM
CC(C)c1c(O)c(O)c2c(c1C=O)[C@H](O)[C@H]1C(C)(C)CCC[C@]21C: > 10 µM

## Task # query: IC50 | item CC(C)C1=C(O)C(=O)C2=C(C=C[C@H]3C(C)(C)CCC[C@]3(C)O2)C1=O | system: MCF7
## Result > 10 µM

## Task # query: IC50 | item COc1c(C(C)C)cc2c(c1O)[C@@]1(C)CCCC(C)(C)[C@@H]1CC2=O | system: MCF7
## Result > 10 µM

## Task # query: IC50 | item CC(C)c1cc2c(c(O)c1O)[C@@]1(C)CCCC(C)(C)[C@@H]1[C@H](O)C2=O | system: MCF7
## Result > 10 µM

## Task # query: IC50 | item CC(C)c1cc2c(cc1O)[C@@]1(C)CC[C@H](O)C(C)(C)[C@@H]1CC2 | system: MCF7
## Result > 10 µM
